- Tested on: SKBR3 cells
- Assay Overview: SKBR3 Cell Viability Assay
- Assay type: cell-based
- Condition Context: 72 hours, CellTiter Glo, read-out: MCL1 CV SKBR3 EC50
pEC50: −log10 of the molar value.
Label scheme for pEC50: lower than 7 is criterion not met, 7 and above is criterion met.

1. COc1nn(C)cc1C(=O)N[S@@]1(=O)=NC(=O)c2ccc3c(c2)N(C[C@@H]2CC[C@H]2[C@](O)(CCN2CCOCC2)/C=C/C[C@H](C)C1)C[C@@]1(CCCc2cc(Cl)ccc21)CO3 : criterion met
2. COc1nn(C)cc1C(=O)N[S@@]1(=O)=NC(=O)c2ccc3c(n2)N(C[C@@H]2CC[C@H]2[C@@H](OC)/C=C/C[C@H](C)C1)C[C@@]1(CCCc2cc(Cl)ccc21)CO3 : criterion met
3. COc1nn(C)cc1C(=O)N[S@@]1(=O)=NC(=O)c2ccc3c(c2)N(C[C@@H]2CC[C@H]2[C@](O)(CC(=O)N(C)C)/C=C/C[C@H](C)C1)C[C@@]1(CCCc2cc(Cl)ccc21)CO3 : criterion not met
4. COc1nn(C)cc1C(=O)N[S@@]1(=O)=NC(=O)c2ccc3c(c2)N(C[C@@H]2CC[C@H]2[C@@](O)(C#CCN(C)C)/C=C/C[C@H](C)C1)C[C@@]1(CCCc2cc(Cl)ccc21)CO3 : criterion met
5. CC[C@@H]1CC/C=C/[C@H](OC)[C@@H]2CC[C@H]2CN2C[C@@]3(CCCc4cc(Cl)ccc43)COc3ccc(cc32)C(=O)N=S1(=O)NC(=O)COC1CCOCC1 (stereo partly shown) : criterion not met
6. CCO/C1=C/C[C@H](OC)[C@@H]2CC[C@H]2CN2C[C@@]3(CCCc4cc(Cl)ccc43)COc3ccc(cc32)C(=O)N=[S@](=O)(NC(=O)c2cn(C)nc2OC)[C@H](C)[C@H]1C : criterion not met
7. COc1nn(C)cc1C(=O)N[S@@]1(=O)=NC(=O)c2ccc3c(c2)N(C[C@@H]2CC[C@H]2C(O)(C#CCN(C)C)/C=C/C[C@H](C)C1)C[C@@]1(CCCc2cc(Cl)ccc21)CO3 (stereo partly shown) : criterion met
8. COc1nn(C)cc1C(=O)N[S@@]1(=O)=NC(=O)c2ccc3c(c2)N(C[C@@H]2CC[C@H]2[C@@](O)(CC(=O)N2CCN(C)CC2)/C=C/C[C@H](C)C1)C[C@@]1(CCCc2cc(Cl)ccc21)CO3 : criterion met
